tested on: Streptococcus pyogenes C203; assay: broth micro-dilution MIC; type: cell-based
Measured quantity: MIC

INSERT INTO results (compound, measured_quantity, reported_result) VALUES
  ('CNC(CC(C)C)C(=O)NC1C(=O)NC(CC(N)=O)C(=O)NC2C(=O)NC3C(=O)NC(C(=O)NC(C(=O)O)c4cc(O)cc(O)c4-c4cc3ccc4O)C(OC3CC(C)(N)C(O)C(C)O3)c3ccc(c(Cl)c3)Oc3cc2cc(c3OC2OC(CO)C(O)C(O)C2OC2CC(C)(NCc3ccc(-c4ccc(OC)c(OC)c4)cc3)C(O)C(C)O2)Oc2ccc(cc2Cl)C1O (stereo not drawn)', 'MIC', '≤ 0.06 µg/mL'),
  ('CNC(CC(C)C)C(=O)NC1C(=O)NC(CC(N)=O)C(=O)NC2C(=O)NC3C(=O)NC(C(=O)NC(C(=O)O)c4cc(O)cc(O)c4-c4cc3ccc4O)C(OC3CC(C)(N)C(O)C(C)O3)c3ccc(c(Cl)c3)Oc3cc2cc(c3OC2OC(CO)C(O)C(O)C2OC2CC(C)(NCC3CCC(c4ccccc4)C3)C(O)C(C)O2)Oc2ccc(cc2Cl)C1O (stereo not drawn)', 'MIC', '≤ 0.06 µg/mL');

// moving on: another record for MIC
I'm curious: which MIC was measured for CNC(CC(C)C)C(=O)NC1C(=O)NC(CC(N)=O)C(=O)NC2C(=O)NC3C(=O)NC(C(=O)NC(C(=O)O)c4cc(O)cc(O)c4-c4cc3ccc4O)C(OC3CC(C)(N)C(O)C(C)O3)c3ccc(c(Cl)c3)Oc3cc2cc(c3OC2OC(CO)C(O)C(O)C2OC2CC(C)(NCc3c4ccccc4c(C)c4ccccc34)C(O)C(C)O2)Oc2ccc(cc2Cl)C1O (stereo not drawn) tested on Streptococcus pyogenes C203?
≤ 0.06 µg/mL

// provenance: patent US5840684A
